Recorded IC50, IL-2 secretion of T-Hyb 1 cells stimulated by 0401-IE transgenic APC; Fab, one value per entry.
target.of.assay: chimeric DR-IE (human-mouse chimeric MHC class II molecule) (human; murine)
test.method.notes: cell-based or functional assay

I am curious: what IC50, IL-2 secretion of T-Hyb 1 cells stimulated by 0401-IE transgenic APC; Fab value has been reported for MS-GPC-8-6-47 (Fab) (Fab, V domains shown) VH: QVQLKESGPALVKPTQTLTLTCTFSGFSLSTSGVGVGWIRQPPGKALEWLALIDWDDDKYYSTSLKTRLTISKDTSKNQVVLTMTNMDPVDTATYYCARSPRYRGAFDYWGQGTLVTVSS VL: DIVLTQPPSVSGAPGQRVTISCSGSESNIGSNYVSWYQQLPGTAPKLLIYDNNQRPSGVPDRFSGSKSGTSASLAITGLQSEDEADYYCQSYDYDHYVFGGGTKLTVLG ?
2.6 nM (Fab concentration/2)

Now consider MS-GPC-8-6-2 (Fab) (Fab, V domains shown) VH: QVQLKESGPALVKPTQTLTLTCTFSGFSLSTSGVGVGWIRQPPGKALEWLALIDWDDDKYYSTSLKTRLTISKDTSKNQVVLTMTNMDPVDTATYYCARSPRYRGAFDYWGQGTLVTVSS VL: DIVLTQPPSVSGAPGQRVTISCSGSESNIGSNYVHWYQQLPGTAPKLLIYDNNQRPSGVPDRFSGSKSGTSASLAITGLQSEDEADYYCQSYDYDHYVFGGGTKLTVLG .
4.7 nM (Fab concentration/2)

Now consider MS-GPC-8-27-7 (Fab) (Fab, V domains shown) VH: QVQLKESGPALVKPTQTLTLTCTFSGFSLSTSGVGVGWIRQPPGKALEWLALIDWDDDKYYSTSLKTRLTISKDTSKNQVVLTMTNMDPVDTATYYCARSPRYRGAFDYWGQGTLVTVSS VL: DIVLTQPPSVSGAPGQRVTISCSGSESNIGNNYVGWYQQLPGTAPKLLIYDNNQRPSGVPDRFSGSKSGTSASLAITGLQSEDEADYYCQSYDMNVHVFGGGTKLTVLG .
5.9 nM (Fab concentration/2)
